Target: Bile acid receptor (Homo sapiens) (UniProt Q96RI1)
Sequence (Q96RI1 whole entry, looked up): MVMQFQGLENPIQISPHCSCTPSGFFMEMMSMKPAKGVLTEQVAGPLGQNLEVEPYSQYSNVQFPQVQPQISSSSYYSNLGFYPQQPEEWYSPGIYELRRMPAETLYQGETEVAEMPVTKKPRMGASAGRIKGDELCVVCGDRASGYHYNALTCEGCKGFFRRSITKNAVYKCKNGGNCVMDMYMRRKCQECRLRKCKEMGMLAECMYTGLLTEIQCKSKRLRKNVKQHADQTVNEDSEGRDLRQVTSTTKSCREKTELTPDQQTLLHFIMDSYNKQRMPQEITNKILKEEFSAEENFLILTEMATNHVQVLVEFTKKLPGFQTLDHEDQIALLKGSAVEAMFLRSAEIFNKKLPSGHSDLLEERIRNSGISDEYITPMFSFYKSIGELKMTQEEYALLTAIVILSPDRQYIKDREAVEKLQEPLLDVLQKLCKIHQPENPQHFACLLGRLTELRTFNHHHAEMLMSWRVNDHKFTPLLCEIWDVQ
Test: OT_FXR_FXRSRC1_1440: Odyssey Thera (OT) 24-hour HEK293T Protein-Complementation Assay for Farnesoid X receptor/SRC-1 Co-activator (AID 2283384)
Method: OT_FXR_FXRSRC1_1440 is a cell-based assay that uses HEK293T, a human kidney cell line, with measurements taken at 24 hours after chemical dosing in a 384-well plate.OT_FXR_FXRSRC1_1440 is one of one assay component(s) measured or calculated from the OT_FXR_FXRSRC1_1440 assay. […] This assay endpoint, OT_FXR_FXRSRC1_1440, was analyzed in the positive analysis fitting direction relative to DMSO as the negative control and baseline of activity. […]
Results filed as inconclusive are left out. Activity calls are given as the source filed them. How the source made its calls: active means hit-call score of the fitted dose curve at least 0.9, where 1 is the maximum; inconclusive means response in the unintended direction; inactive means score below 0.9.
// classify into active, inactive

Here's what some known entries look like.
INSERT INTO measurements (molecule, tgt, class_name) VALUES
  ('CC(C)(C)c1cc(Cc2cc(C(C)(C)C)c(O)c(C(C)(C)C)c2)cc(C(C)(C)C)c1O', 'Bile acid receptor (Homo sapiens) (UniProt Q96RI1)', 'active'),
  ('Cc1ccc(O)c(-n2nc3ccccc3n2)c1', 'Bile acid receptor (Homo sapiens) (UniProt Q96RI1)', 'inactive'),
  ('COCCOCCC[Si](C)(O[Si](C)(C)C)O[Si](C)(C)C', 'Bile acid receptor (Homo sapiens) (UniProt Q96RI1)', 'inactive'),
  ('CCN=c1cc2oc3cc(NCC)c(C)cc3c(-c3ccccc3C(=O)OCC)c-2cc1C', 'Bile acid receptor (Homo sapiens) (UniProt Q96RI1)', 'inactive'),
  ('CCCCCCCC/C=C\CCCCCCCC(=O)N(C)CC(=O)O', 'Bile acid receptor (Homo sapiens) (UniProt Q96RI1)', 'inactive'),
  ('CCCCCCCCCc1ccc(OCCO)cc1', 'Bile acid receptor (Homo sapiens) (UniProt Q96RI1)', 'active');

Could you check what this test reported for `CCc1cc(Cc2cc(CC)c(N)c(CC)c2)cc(CC)c1N` ?
inactive

* * *

Test: ATG_AP_2_CIS: Attagene CIS-FACTORIAL HepG2 Assay for human Activator Protein 2 (AP-2) (AID 2282932)
Conditions: HepG2 AP-2 cis-reporter, Attagene transcription factor profiling; actives raise or lower the signal
The source made the active and inactive calls. The calls were made as follows: active = hit-call score of the fitted dose curve at least 0.9, where 1 is the maximum; inactive = score below 0.9.
// classify into active, inactive

Here's what some known entries look like.
INSERT INTO results (compound, class_name) VALUES
  ('CC(C)(C)c1cc(CCC(=O)NCCCCCCNC(=O)CCc2cc(C(C)(C)C)c(O)c(C(C)(C)C)c2)cc(C(C)(C)C)c1O', 'inactive'),
  ('c1ccc(C[P+](c2ccccc2)(c2ccccc2)c2ccccc2)cc1', 'inactive'),
  ('CCn1c2ccccc2c2ccccc21', 'inactive'),
  ('CCC(Cc1c(I)cc(I)c(N)c1I)C(=O)O (centres undefined)', 'inactive'),
  ('CCN=c1cc2oc3cc(NCC)c(C)cc3c(-c3ccccc3C(=O)OCC)c-2cc1C', 'active'),
  ('O=C(Cl)c1ccc(Cl)cc1Cl', 'inactive');

Could you check what this test reported for `CCOC(C=C(C)CCC=C(C)C)OCC` ?
inactive

Could you check what this test reported for `Nc1cc([N+](=O)[O-])cc(Cl)c1O` ?
inactive

Could you check what this test reported for `FC(F)(F)C(F)(F)C(F)(F)C(F)(F)C(F)(F)C(F)(F)C(F)(F)CCI` ?
inactive

Could you check what this test reported for `CC(=O)C=O` ?
inactive

Could you check what this test reported for `OCC(F)(F)C(F)(F)C(F)(F)C(F)(F)C(F)(F)C(F)(F)CO` ?
inactive

Could you check what this test reported for OCC(O)CC(F)(F)C(F)(F)C(F)(F)C(F)(F)C(F)(F)C(F)(F)C(F)(F)C(F)(F)F (centres undefined) ?
inactive

Could you check what this test reported for CC(O)C#CC(C)O (centres undefined) ?
inactive

Could you check what this test reported for `O=C(O)C(F)(F)OC(F)(F)C(F)(F)OC(F)(F)C(F)(F)OC(F)(F)F` ?
inactive

Could you check what this test reported for `O=C1OC(=O)c2ccc3c4c(ccc1c24)C(=O)OC3=O` ?
inactive

Could you check what this test reported for `NC(=O)C(F)(F)C(F)(F)C(F)(F)F` ?
inactive

Could you check what this test reported for CC1=CC2C3C=CC(C3)C2C1C (centres undefined) ?
inactive

Could you check what this test reported for `OCC(F)(F)C(F)(F)C(F)(F)C(F)(F)C(F)(F)C(F)(F)C(F)(F)C(F)(F)CO` ?
inactive

Could you check what this test reported for `COC(=O)c1ccc(C=O)cc1` ?
inactive

Could you check what this test reported for `NC(=O)C(F)(F)C(F)(F)C(F)(F)C(F)(F)C(N)=O` ?
inactive

Could you check what this test reported for `CCCCCCCCCCCC(=O)Cl` ?
inactive

Could you check what this test reported for `O=C1C=CC(=O)N1c1ccccc1` ?
inactive

Could you check what this test reported for `CC(=O)CCC(C)C` ?
inactive

Could you check what this test reported for `NC(O)(C(F)(F)F)C(F)(F)F` ?
inactive

Could you check what this test reported for `C=CCOC(=O)CC(C)C` ?
inactive

Could you check what this test reported for CCOC(=O)C1CC(=O)C(=C(O)C2CC2)C(=O)C1 (centres undefined) ?
inactive

Could you check what this test reported for `O=C(c1ccccc1)c1ccc(Cl)cc1` ?
inactive

Could you check what this test reported for `OCCCCC(F)(F)C(F)(F)C(F)(F)C(F)(F)F` ?
inactive

Could you check what this test reported for `CNS(=O)(=O)C(F)(F)C(F)(F)C(F)(F)C(F)(F)C(F)(F)C(F)(F)C(F)(F)C(F)(F)F` ?
inactive

Could you check what this test reported for `O=C(O)CCC(F)(F)C(F)(F)C(F)(F)C(F)(F)C(F)(F)C(F)(F)C(F)(F)F` ?
inactive

Could you check what this test reported for C#CC(O)CCC (centres undefined) ?
inactive

src = PubChem BioAssay (EPA / NIEHS)
